experiment: self-splicing fitness, log relative to wild type (ln ratio); higher = more splicing; Tetrahymena group I intron in knt gene, E. coli kanamycin selection, DiMSum; sequences stand for … in CUCUCU…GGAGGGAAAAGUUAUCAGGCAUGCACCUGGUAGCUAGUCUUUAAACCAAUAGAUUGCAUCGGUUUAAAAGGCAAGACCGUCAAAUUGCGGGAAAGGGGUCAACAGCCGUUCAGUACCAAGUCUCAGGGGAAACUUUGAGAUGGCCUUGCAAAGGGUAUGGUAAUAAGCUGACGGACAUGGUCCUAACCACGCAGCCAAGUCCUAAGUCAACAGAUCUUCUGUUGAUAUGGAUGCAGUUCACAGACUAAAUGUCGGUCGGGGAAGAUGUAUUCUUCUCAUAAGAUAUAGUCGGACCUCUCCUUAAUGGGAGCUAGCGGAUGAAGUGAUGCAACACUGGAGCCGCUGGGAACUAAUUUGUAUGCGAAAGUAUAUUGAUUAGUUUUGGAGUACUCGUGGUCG; details: 30 °C;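 also: selection with 25 µg/mL kanamycin versus none on LB agar overnight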
So I've got a bunch of sequences here, and I need their self-splicing fitness (ln) values.
Numbers only.

Solved cases (5 shown):
sequence | result
GUUAAGCAAUAUUACGUCGA | -1.79
AUAAAGCAAUAUUACGUACG | -0.889
AAGAAGCAAUAUUACGCCUG | -0.11
UACUAGCAAUAUUACGGAGG | -2.77
UCCUAGCAAUAUUACGCUCG | -3.13

Batch: self-splicing fitness (ln) for all items listed.
1. GCUCAGCAAUAUUACGGUCG
2. GAAAAGCAAUAUUACGUCGA

a:
[-2.35, -1.14]

Batch: self-splicing fitness (ln) for all items listed.
1. UGACAGCAAUAUUACGGGAU
2. CCAUAGCAAUAUUACGGUAG
3. CCACAGCAAUAUUACGAUUA
4. GGUGAGCAAUAUUACGGCGA
5. UGUGAGCAAUAUUACGAACA

a:
1. -3.3
2. -2.01
3. -3.92
4. -1.1
5. -0.691

* * *

So I've got a bunch of sequences here, and I need their self-splicing fitness (ln) values.
assay: self-splicing fitness, log relative to wild type (ln ratio); higher = more splicing; Tetrahymena group I intron in knt gene, E. coli kanamycin selection, DiMSum; sequences stand for … in CUCUCU…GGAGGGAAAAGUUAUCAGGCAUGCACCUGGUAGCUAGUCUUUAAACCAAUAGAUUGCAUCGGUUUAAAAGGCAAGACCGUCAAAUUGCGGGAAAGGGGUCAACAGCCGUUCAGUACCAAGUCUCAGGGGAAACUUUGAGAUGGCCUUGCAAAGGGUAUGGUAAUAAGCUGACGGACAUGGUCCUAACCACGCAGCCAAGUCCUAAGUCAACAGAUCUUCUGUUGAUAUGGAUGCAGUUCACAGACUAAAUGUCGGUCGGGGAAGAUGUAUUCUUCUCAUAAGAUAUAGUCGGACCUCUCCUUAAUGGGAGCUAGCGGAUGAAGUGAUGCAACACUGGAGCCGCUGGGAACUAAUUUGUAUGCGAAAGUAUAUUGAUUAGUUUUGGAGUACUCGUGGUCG; settings: 37 °C

Solved cases (2 shown):
sequence | self-splicing fitness (ln)
CUUCAGCAAUAUUACGGAAU | -1.17
GUUAAGCAAUAUUACGCGCU | -1.63

Batch: self-splicing fitness (ln) for all items listed.
1. GUGUAGCAAUAUUACGGGAU
2. GGUCAGCAAUAUUACGCCAA
3. AGGCAGCAAUAUUACGUGUA
4. AUAGAGCAAUAUUACGAAGU
5. GCGGAGCAAUAUUACGCAGC

a:
1: -2.18; 2: -2.06; 3: -1.09; 4: -0.662; 5: -2.35

Batch: self-splicing fitness (ln) for all items listed.
1. AAUAAGCAAUAUUACGUAUG
2. UCCCAGCAAUAUUACGCUUU
3. GACCAGCAAUAUUACGGGGU
4. UCCAAGCAAUAUUACGCUGC
5. CCCUAGCAAUAUUACGUCCG

a:
-0.966
-2
-1.82
-2.61
-2.57

* * *

assay: self-splicing fitness, log relative to wild type (ln ratio); higher = more splicing; Tetrahymena group I intron in knt gene, E. coli kanamycin selection, DiMSum; sequences stand for … in CUCUCU…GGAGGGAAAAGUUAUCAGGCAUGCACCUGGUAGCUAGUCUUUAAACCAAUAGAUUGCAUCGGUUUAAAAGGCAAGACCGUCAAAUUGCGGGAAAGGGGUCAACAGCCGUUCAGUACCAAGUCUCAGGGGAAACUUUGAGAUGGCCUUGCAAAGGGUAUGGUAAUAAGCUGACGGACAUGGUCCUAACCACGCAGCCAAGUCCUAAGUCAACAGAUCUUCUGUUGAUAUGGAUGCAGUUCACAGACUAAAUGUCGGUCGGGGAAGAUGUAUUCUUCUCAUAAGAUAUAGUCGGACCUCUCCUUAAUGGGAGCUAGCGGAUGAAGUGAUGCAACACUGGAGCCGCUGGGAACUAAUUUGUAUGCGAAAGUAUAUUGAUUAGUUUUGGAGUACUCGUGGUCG; settings: 37 °C
So I've got a bunch of sequences here, and I need their self-splicing fitness (ln) values.
Answers are plain numbers.

sequence | quantity-measured | result
CGGGAGCAAUAUUACGAUCA | self-splicing fitness (ln) | -1.75
CGUGAGCAAUAUUACGUUUU | self-splicing fitness (ln) | -3.73
GGCCAGCAAUAUUACGCAGA | self-splicing fitness (ln) | -1.28
CAGGAGCAAUAUUACGGGUG | self-splicing fitness (ln) | -0.707
CUUAAGCAAUAUUACGCGAC | self-splicing fitness (ln) | -0.508
CUGUAGCAAUAUUACGUGGA | self-splicing fitness (ln) | -4.32
AUUAAGCAAUAUUACGGAAC | self-splicing fitness (ln) | -0.822
GCUCAGCAAUAUUACGACCA | self-splicing fitness (ln) | -0.532

Batch: self-splicing fitness (ln) for all items listed.
1. UCCCAGCAAUAUUACGCACU
2. GAGCAGCAAUAUUACGUAAG
3. UGCAAGCAAUAUUACGAAGA
4. AACUAGCAAUAUUACGGAGG

a:
1. -1.04
2. -1.45
3. -2.3
4. -1.99

* * *

assay: self-splicing fitness, log relative to wild type (ln ratio); higher = more splicing; Tetrahymena group I intron in knt gene, E. coli kanamycin selection, DiMSum; sequences stand for … in CUCUCU…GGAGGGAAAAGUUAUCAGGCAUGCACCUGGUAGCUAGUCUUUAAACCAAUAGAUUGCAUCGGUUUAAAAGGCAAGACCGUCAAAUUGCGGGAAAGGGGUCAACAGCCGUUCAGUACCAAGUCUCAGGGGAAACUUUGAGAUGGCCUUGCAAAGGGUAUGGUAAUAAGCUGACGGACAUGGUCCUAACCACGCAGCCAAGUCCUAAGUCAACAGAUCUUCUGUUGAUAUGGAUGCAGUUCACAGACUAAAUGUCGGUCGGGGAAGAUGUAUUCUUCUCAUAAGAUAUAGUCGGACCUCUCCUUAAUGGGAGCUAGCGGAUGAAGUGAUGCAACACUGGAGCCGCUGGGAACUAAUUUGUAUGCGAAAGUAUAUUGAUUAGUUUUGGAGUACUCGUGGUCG; details: 37 °C
Kindly return Condition met if reported self-splicing fitness (ln) is no lower than -2; return Condition not met if it is lower.

sequence | class
GUACAGCAAUAUUACGCAAA | Condition not met
GCACAGCAAUAUUACGAAAC | Condition met
ACAUAGCAAUAUUACGGUCG | Condition met

q: Record UGGCAGCAAUAUUACGCAGU ; criterion: self-splicing fitness (ln) no lower than -2. Met?
a: Condition not met

q: Record GAUAAGCAAUAUUACGUACU ; criterion: self-splicing fitness (ln) no lower than -2. Met?
a: Condition met

q: Record CUUAAGCAAUAUUACGCAUC ; criterion: self-splicing fitness (ln) no lower than -2. Met?
a: Condition met

* * *

experiment: self-splicing fitness, log relative to wild type (ln ratio); higher = more splicing; Tetrahymena group I intron in knt gene, E. coli kanamycin selection, DiMSum; sequences stand for … in CUCUCU…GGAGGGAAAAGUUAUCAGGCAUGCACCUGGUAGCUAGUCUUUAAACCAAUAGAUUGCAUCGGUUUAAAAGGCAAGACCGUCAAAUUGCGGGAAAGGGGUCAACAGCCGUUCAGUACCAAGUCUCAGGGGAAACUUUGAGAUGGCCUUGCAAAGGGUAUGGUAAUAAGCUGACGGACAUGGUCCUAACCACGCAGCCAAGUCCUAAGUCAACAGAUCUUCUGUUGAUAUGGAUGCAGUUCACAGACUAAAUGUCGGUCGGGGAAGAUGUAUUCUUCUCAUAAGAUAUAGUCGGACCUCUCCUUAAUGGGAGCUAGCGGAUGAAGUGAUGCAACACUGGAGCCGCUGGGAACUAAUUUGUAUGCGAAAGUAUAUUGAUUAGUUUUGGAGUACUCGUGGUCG; details: 30 °C
So I've got a bunch of sequences here, and I need their self-splicing fitness (ln) values.
One number for each entry.

Solved cases (3 shown):
sequence | self-splicing fitness (ln)
AGUAAGCAAUAUUACGCGAG | -3.33
UAUUAGCAAUAUUACGGCCC | -1.78
UUCAAGCAAUAUUACGACAG | -1.5

Batch: self-splicing fitness (ln) for all items listed.
1. ACGCAGCAAUAUUACGUACG
2. AAGCAGCAAUAUUACGAGGG
3. UCGGAGCAAUAUUACGCUAU
4. CGCCAGCAAUAUUACGCGGC
5. AAUUAGCAAUAUUACGACUA
6. AAAGAGCAAUAUUACGAUGA

a:
1. -2.93
2. -2.45
3. -3.09
4. -4.11
5. 0.0301
6. -3.01

Batch: self-splicing fitness (ln) for all items listed.
1. GGGUAGCAAUAUUACGCAGU
2. CAGGAGCAAUAUUACGACAU
3. GUGGAGCAAUAUUACGUCUU
4. AUACAGCAAUAUUACGACCG
5. CUGCAGCAAUAUUACGCGAG
6. UAAUAGCAAUAUUACGACGA

a:
-1.34
-3.77
-2.36
-1.22
-3.67
-1.41

Batch: self-splicing fitness (ln) for all items listed.
1. GUGGAGCAAUAUUACGACUC
2. CACCAGCAAUAUUACGUGAG
3. CUUUAGCAAUAUUACGGUGU
4. ACGUAGCAAUAUUACGGCCG
5. GUUCAGCAAUAUUACGGUGG

a:
1: -3.19; 2: -3.8; 3: -3.52; 4: -0.0843; 5: -2.39

Batch: self-splicing fitness (ln) for all items listed.
1. UAUGAGCAAUAUUACGUUAC
2. AGCCAGCAAUAUUACGGGUG
3. UCCGAGCAAUAUUACGGGUG

a:
1: -3.37; 2: -2.15; 3: -1.97

Source of measurements: the supplement of paper PMC7877785
